Give measured pIC50 for each item. Keep answers brief.
- System: HCV replicon
- method.summary: microbe, parasite or virus in culture
- Format: cell-based
- conditions: Hepatitis C virus, 48 h, read-out: Replicon IC5Os
pIC50: −log10 of the molar value.

(Q) Which pIC50 is reported with HCV replicon for this entry: C=CCNC(=O)Nc1cccc(-c2c(C#N)c3ccc(OC)cc3n2CC)c1 [Compound 399] ?
(A) > 6.30

(Q) Which pIC50 is reported with HCV replicon for this entry: CCn1c(-c2cccc(NC(=O)OC)c2)c(C#N)c2ccc(OC(C)C)cc21 [Compound 581] ?
(A) 5.70 to 6.30

(Q) Which pIC50 is reported with HCV replicon for this entry: CCS(=O)(=O)Nc1ccc(-c2c(C#N)c3ccc(OC)cc3n2C)cc1 [Compound 345] ?
(A) 5.70 to 6.30

(Q) Which pIC50 is reported with HCV replicon for this entry: CCn1c(-c2ccc(NS(=O)(=O)C3CC3)cc2)c(C#N)c2ccc(OCCF)cc21 [Compound 552] ?
(A) > 6.30

(Q) Which pIC50 is reported with HCV replicon for this entry: CCCOC(=O)Nc1ccc(-c2c(C#N)c3ccc(OC)cc3n2CCOC)cc1 [Compound 677] ?
(A) 5.70 to 6.30

(Q) Which pIC50 is reported with HCV replicon for this entry: CCOC(=O)Nc1cccc(-c2c(C#N)c3ccc(OC(F)F)cc3n2CC2CC2)c1 [Compound 745] ?
(A) > 6.30

(Q) Which pIC50 is reported with HCV replicon for this entry: CCOC(=O)Nc1cccc(-c2c(C#N)c3ccc(OCCCCl)cc3n2CC)c1 [Compound 447] ?
(A) > 6.30

(Q) Which pIC50 is reported with HCV replicon for this entry: CCn1c(-c2ccc(NS(=O)(=O)CC)cc2)c(C#N)c2ccc(OCc3ccccn3)cc21 [Compound 671] ?
(A) > 6.30

(Q) Which pIC50 is reported with HCV replicon for this entry: CCS(=O)(=O)Nc1ccc(-c2c(C#N)c3ccc(OC(F)F)cc3n2CC2CC2)cc1 [Compound 614] ?
(A) > 6.30

(Q) Which pIC50 is reported with HCV replicon for this entry: C=Cn1c(-c2ccc(NS(=O)(=O)CC)cc2)c(C#N)c2ccc(OC)cc21 [Compound 633] ?
(A) 5.70 to 6.30

(Q) Which pIC50 is reported with HCV replicon for this entry: CCn1c(-c2ccc(NS(=O)(=O)CC)cc2)c(C#N)c2ccc(OCCF)cc21 [Compound 549] ?
(A) > 6.30

(Q) Which pIC50 is reported with HCV replicon for this entry: CC(C)OC(=O)Nc1ccc(-c2c(C#N)c3ccc(OC(F)F)cc3n2CC2CC2)cc1 [Compound 737] ?
(A) 5.70 to 6.30

(Q) Which pIC50 is reported with HCV replicon for this entry: CCOC(=O)Nc1ccc(-c2c(C#N)c3ccc(OCCCN4CCCC4)cc3n2CC)cc1 [Compound 537] ?
(A) > 6.30
